target-entity: Streptokinase A (Streptococcus pyogenes serotype M1, UniProt P10520)
Sequence (P10520 whole entry): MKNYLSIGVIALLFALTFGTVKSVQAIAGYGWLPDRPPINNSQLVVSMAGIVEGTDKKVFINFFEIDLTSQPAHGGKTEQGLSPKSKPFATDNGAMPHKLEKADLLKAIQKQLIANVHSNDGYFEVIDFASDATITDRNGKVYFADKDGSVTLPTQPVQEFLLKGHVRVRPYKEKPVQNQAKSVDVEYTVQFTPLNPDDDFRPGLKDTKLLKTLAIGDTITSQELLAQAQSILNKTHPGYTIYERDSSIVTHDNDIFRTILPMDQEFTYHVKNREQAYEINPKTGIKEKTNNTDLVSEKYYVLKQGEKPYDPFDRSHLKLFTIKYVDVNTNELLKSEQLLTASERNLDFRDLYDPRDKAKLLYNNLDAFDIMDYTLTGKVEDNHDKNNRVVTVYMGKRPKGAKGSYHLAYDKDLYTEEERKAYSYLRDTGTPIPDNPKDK
measurement-notes: S. pyogenes streptokinase expression inhibitors, potency, dose response, plasminogen activation absorbance, OD405 (AID 1914);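 note: secreted streptokinase activity via plasminogen activation per viability signal from cell pellet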
Type: functional, Streptococcus pyogenes M1 GAS
Calls of active or inactive are those of the source. Cut-off read from the data, not from the text of the source: actives have a measured EC50 and inactives only a lower limit.
EC50 by entry:
reported-metric: EC50

INSERT INTO assay_data (molecule, measured_result) VALUES
  ('O=C1c2ccccc2CCC12N=NCC2c1ccc(Br)cc1 (configuration not stated)', '23.7 µM (active)'),
  ('CC(=O)N1CCc2cc(S(=O)(=O)N3CCc4ccccc43)ccc21', '> 150 µM (not active)'),
  ('Cc1ccc(/C=C/C(=O)c2ccc([N+](=O)[O-])o2)cc1', '8.82 µM (active)'),
  ('COCCCN1C(=O)/C(=C\c2nc(C#N)c(Nc3ccc(C)cc3)o2)SC1=S', '> 150 µM (not active)'),
  ('C=CCn1c(=O)c(C(=O)NCc2ccccc2)c(O)c2ccccc21', '42.2 µM (active)'),
  ('Cc1ccc(/C=N/NC(=O)C2=NNC(c3ccccc3)(c3ccccc3)C2)c(O)c1', '> 150 µM (not active)'),
  ('COc1ccc2c3ncn(CCc4c[nH]cn4)c(O)c-3nc2c1', '> 150 µM (not active)'),
  ('Cc1cc(Nc2ccccc2)nn1C(=O)c1ccc(Br)cc1', '> 150 µM (not active)'),
  ('Cc1ccc(C(=O)/C=C(\O)C(=O)NC23CC4CC(CC(C4)C2)C3)cc1', '> 150 µM (not active)'),
  ('C=CCN(CC=C)S(=O)(=O)c1ccc(NC(=S)NC(=O)C2CC2)cc1', '> 150 µM (not active)'),
  ('N#C/C(=N/Nc1ccc(OC(F)(F)F)cc1)C(N)=S', '> 150 µM (not active)'),
  ('CCOc1ccc(NC(=S)N=Nc2c(O)[nH]c3ccccc23)cc1', '> 150 µM (not active)'),
  ('COc1ccc2oc(=O)c(-c3csc(Nc4ccc(O)cc4)n3)cc2c1', '> 150 µM (not active)'),
  ('Oc1cc2ccccc2cc1-c1nnc(S)o1', '23.5 µM (active)'),
  ('CCCCSc1ccc2nc(-c3ccc(C#N)cc3)cn2c1', '> 150 µM (not active)'),
  ('O=C(CSc1ccc(Cl)cc1)NC1=NN(c2ccccc2)C(=O)C1', '9.33 µM (inconclusive)'),
  ('C=CCc1cc(/C=C2/NC(=O)N(CC)C2=O)cc(OCC)c1OCc1ccc(C(=O)O)cc1', '> 150 µM (not active)'),
  ('O=C(c1cnc(-c2ccccc2)s1)c1ccc(Cl)cc1Cl', '33.7 µM (active)'),
  ('C[C@@H](C[C@@H](O)[C@H](O)C(C)(C)O)[C@@H]1CC[C@]2(C)C3=CC[C@H]4C(C)(C)C(=O)CC[C@]4(C)[C@H]3CC[C@@]12C', '> 150 µM (not active)'),
  ('CCN(CC)S(=O)(=O)c1ccc(N2CCOCC2)c(NC(=O)C2CSC3(C)CCC(=O)N23)c1 (configuration not stated)', '> 150 µM (not active)'),
  ('Cc1ccc(N/N=C2\CS(=O)(=O)N(C)c3ccsc32)cc1', '4.04 µM (active)'),
  ('FC(F)Oc1ccccc1C1CC(c2ccc(Br)s2)Nc2ncnn21 (configuration not stated)', '> 150 µM (not active)');
